TARGET OR SYSTEM: Syk (356-635 amino acids) catalytic domain (Homo sapiens (Human), UniProt P43405)
PROTOCOL NOTES: Inhibition of enzymatic Syk kinase activity (radiometric)
Type: biochemical
MEASUREMENT CONDITIONS: read-out: IC50 Syk
Description: The objective of this assay was to examine by radiometric method the ability of compounds to inhibit Syk kinase enzyme. Syk is capable of phosphorylating substrates such as VAV, LAT, SLP-76, which in turn activate MAPK, PLCγ signaling pathways. […] This in vitro assay tests the ability of syk to phosphorylate a substrate peptide in the presence of ATP. […] The filter plate was dried and the radioactivity was measured on a scintillation counter to estimate the incorporated radioactivity on the substrate. […]
Where a name gives a salt, the structure may show the parent alone.
Measured IC50 by item

Some solved cases for reference:
COMPOUND	TARGET OR SYSTEM	IC50
O=c1[nH]ncc2nc(-c3ccccc3)nc(Nc3ccc(OC[C@@H]4CO[C@@H](CO)CO4)cc3)c12 [Example 122]	Syk (356-635 amino acids) catalytic domain (Homo sapiens (Human), UniProt P43405)	> 100 nM
N#CCC1CCN(c2nc(Nc3ccc(N4CCC(CCF)CC4)cc3)c3c(=O)[nH]ncc3n2)CC1 [Example 299]	Syk (356-635 amino acids) catalytic domain (Homo sapiens (Human), UniProt P43405)	< 50 nM
CCN1CCN(c2ccc(Nc3nc(N4CCCCCC4)nc4cn[nH]c(=O)c34)cc2)CC1 [Example 180]	Syk (356-635 amino acids) catalytic domain (Homo sapiens (Human), UniProt P43405)	< 10 nM
N#CCC1CCN(c2ccc(Nc3nc(-c4ccccc4)nc4cn[nH]c(=O)c34)cn2)CC1 [Example 101]	Syk (356-635 amino acids) catalytic domain (Homo sapiens (Human), UniProt P43405)	> 100 nM
N#CCC1CCN(c2nc(Nc3ccc(CCC(=O)O)cc3)c3c(=O)[nH]ncc3n2)CC1 [Example 305]	Syk (356-635 amino acids) catalytic domain (Homo sapiens (Human), UniProt P43405)	< 10 nM

Ask: If you can, please state the reported IC50 value of N#CCC1CCN(c2ccc(Nc3nc(-c4ccccc4)nc4cn[nH]c(=O)c34)cc2)CC1 [Example 82] .
Reply: > 100 nM

Ask: If you can, please state the reported IC50 value of CC1CCN(c2nc(Nc3ccc(OCCN4CCNCC4)cc3)c3c(=O)[nH]ncc3n2)CC1 [Example 156, hydrochloride] .
Reply: < 50 nM

Ask: If you can, please state the reported IC50 value of N#CCC1CCN(c2nc(Nc3ccc(N4CCNCC4)nc3)c3c(=O)[nH]ncc3n2)CC1 [Example 231] .
Reply: < 50 nM

---

TARGET OR SYSTEM: UniProtKB O60674
Sequence (O60674 808-1132): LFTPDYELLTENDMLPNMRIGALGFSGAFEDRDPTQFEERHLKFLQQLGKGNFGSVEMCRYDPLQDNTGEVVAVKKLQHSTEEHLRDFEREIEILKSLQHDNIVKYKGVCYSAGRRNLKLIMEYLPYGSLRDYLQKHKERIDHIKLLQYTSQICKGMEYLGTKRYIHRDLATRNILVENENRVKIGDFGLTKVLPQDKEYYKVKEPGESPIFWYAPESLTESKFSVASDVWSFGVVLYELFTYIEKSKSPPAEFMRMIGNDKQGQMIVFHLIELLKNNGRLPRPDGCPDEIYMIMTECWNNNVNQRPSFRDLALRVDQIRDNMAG
PROTOCOL NOTES: Inhibition of enzymatic JAK2 kinase activity (TR-FRET)
Type: biochemical
MEASUREMENT CONDITIONS: read-out: IC50 JAK
Measured IC50 by item

Some solved cases for reference:
MOLECULE	IC50
O=c1[nH]ncc2nc(N3CCCCCC3)nc(Nc3ccc(CCCN4CCNCC4)cc3)c12 [Example 173]	< 0.05 µM
O=C(O)CCc1ccc(Nc2nc(N3CCCCCC3)nc3cn[nH]c(=O)c23)cc1 [Example 304]	< 0.01 µM

Ask: If you can, please state the reported IC50 value of N#CCC1CCN(c2nc(Nc3ccc(OC4CCN(CC(=O)O)CC4)cc3)c3c(=O)[nH]ncc3n2)CC1 [Example 262] .
Reply: < 0.01 µM

Ask: If you can, please state the reported IC50 value of CN1CCN(C(=O)COc2ccc(Nc3nc(N4CCCCCC4)nc4cn[nH]c(=O)c34)cc2)CC1 [Example 283] .
Reply: < 0.01 µM

Ask: If you can, please state the reported IC50 value of O=C(O)Cn1nnc(-c2ccc(Nc3nc(N4CCCCCC4)nc4cn[nH]c(=O)c34)cc2)n1 [Example 235] .
Reply: < 0.05 µM

Ask: If you can, please state the reported IC50 value of CC1CN(c2nc(Nc3ccc(N4CCC(CC(=O)O)CC4)cc3)c3c(=O)[nH]ncc3n2)CC(C)O1 (centres unmarked) [Example 121] .
Reply: < 0.05 µM

Ask: If you can, please state the reported IC50 value of CC1CCN(c2nc(Nc3ccc(N4CCC5(CC4)CC5C(=O)O)cc3)c3c(=O)[nH]ncc3n2)CC1 (centres unmarked) [Example 155] .
Reply: < 0.05 µM

Ask: If you can, please state the reported IC50 value of CN1CCN(c2ccc(Nc3nc(N4CCC(CC#N)CC4)nc4cn[nH]c(=O)c34)cc2)CC1 [Example 248] .
Reply: < 0.01 µM

Origin of measurements: patent US10183944B2
